Entry source: paper PMC5428354

Biological target: DPP4 (Homo sapiens, UniProt P27487)
Sequence (P27487 whole entry): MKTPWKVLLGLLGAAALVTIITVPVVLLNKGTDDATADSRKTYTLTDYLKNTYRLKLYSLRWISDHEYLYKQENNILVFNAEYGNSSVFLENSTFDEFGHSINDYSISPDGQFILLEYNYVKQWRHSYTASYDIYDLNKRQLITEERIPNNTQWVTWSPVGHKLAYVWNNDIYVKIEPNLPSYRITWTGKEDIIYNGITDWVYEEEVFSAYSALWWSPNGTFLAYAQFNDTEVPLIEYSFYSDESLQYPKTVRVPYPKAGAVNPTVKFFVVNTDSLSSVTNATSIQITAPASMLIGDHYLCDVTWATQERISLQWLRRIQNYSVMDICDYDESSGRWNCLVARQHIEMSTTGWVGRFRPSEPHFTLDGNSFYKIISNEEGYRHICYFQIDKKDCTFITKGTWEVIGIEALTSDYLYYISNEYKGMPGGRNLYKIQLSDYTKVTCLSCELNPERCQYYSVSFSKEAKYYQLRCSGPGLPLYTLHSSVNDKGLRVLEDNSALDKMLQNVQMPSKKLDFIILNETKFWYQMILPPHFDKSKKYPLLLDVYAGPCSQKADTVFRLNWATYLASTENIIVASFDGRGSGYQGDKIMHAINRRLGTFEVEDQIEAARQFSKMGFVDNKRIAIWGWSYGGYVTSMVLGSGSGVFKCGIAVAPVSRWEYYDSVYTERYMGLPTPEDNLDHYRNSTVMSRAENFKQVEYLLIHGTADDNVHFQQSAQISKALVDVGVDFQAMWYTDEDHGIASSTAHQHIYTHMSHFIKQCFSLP
Assay: DPP4 activity assay (DPP4 inhibitor screening assay kit, Cayman)
Type: biochemical
Parameters: purchased Cayman Chemical, Ann Arbor, MI, USA
Details: 10 µM; control mean 100.0; Figure 1A raw data
measuredParameter: DPP4 activity in library screen, Exp 1
Number only, please.

INSERT INTO assay_data (molecule, measurednumber) VALUES
  ('COc1ccc(-c2coc3cc(O)cc(O)c3c2=O)cc1 [Biochanin A]', 94.6);

Returns the measured DPP4 activity in library screen, Exp 1 for the input molecule. Input: CN1CC[C@]23c4ccccc4N[C@H]1[C@]21CCN(C)[C@H]3Nc2ccccc21 [Calycanthine] 98.1

Reported DPP4 activity in library screen, Exp 1 for CC1(C)CCC[C@]2(C)[C@H]3CC(=O)O[C@]3(C)CC[C@@H]12 [Sclareolide] : what is it? 95.1

DPP4 activity in library screen, Exp 1 for O=C1CCC[C@@H]2[C@H]3CCCN4CCC[C@@H](CN12)[C@@H]34 [(+)-Matrine] ? 101.6

Reported DPP4 activity in library screen, Exp 1, molecule COc1cc2c(cc1O)C[C@@H]1NCCc3cc(OC)c(O)c-2c31 [Norisoboldine] : ____ 95.3

###

Target: DPP4 (Homo sapiens, UniProt P27487)
Test: DPP4 activity assay (DPP4 inhibitor screening assay kit, Cayman)
Assay type: biochemical
Set-up: purchased Cayman Chemical, Ann Arbor, MI, USA
Conditions: 0.5 h, 10 µM; control mean 100.0; Figure 1A raw data; read-out: DPP4 activity in library screen, Exp 1
measuredParameter: remaining activity at 10 µM (%)
Answer in %, number only, no unit symbol.

INSERT INTO measurements (molecule, endpointunit, measurednumber) VALUES
  ('CC[C@@]1(O)C(=O)OCc2c1cc1n(c2=O)Cc2cc3cc(O)ccc3nc2-1 [(S)-10-Hydroxycamptothecin]', '%', 87.4),
  ('C/C=C1/[C@H](O[C@@H]2O[C@H](CO)[C@@H](O)[C@H](O)[C@H]2O)OC=C(C(=O)OC)[C@H]1CC(=O)OCCc1ccc(O)c(O)c1 [Oleuropein]', '%', 117),
  ('O=[N+]([O-])c1ncc[nH]1 [Azomycin]', '%', 74.2),
  ('O=C1C=CC[C@@H]2[C@H]3CCCN4CCC[C@@H](CN12)[C@@H]34 [Sophocarpine]', '%', 96.7);

What value of remaining activity at 10 µM has been reported for the following molecule? COc1ccc(-c2cc(=O)c3c(O)cc(O[C@@H]4O[C@H](CO[C@@H]5O[C@@H](C)[C@H](O)[C@@H](O)[C@H]5O)[C@@H](O)[C@H](O)[C@H]4O)cc3o2)cc1O [Diosmin] 66.8

Need remaining activity at 10 µM, item Cc1cc(O)c2c(c1)C(=O)c1cccc(O)c1C2=O [Chrysophanol] 64.4

Query (molecule): CN(C)CCc1ccc(O)cc1 [Hordenine] ; field requested: remaining activity at 10 µM 90.7

Record request: remaining activity at 10 µM value, item COc1cc(C=O)ccc1O [Vanillin] 105

###

Biological target: DPP4 (Homo sapiens)
Assay: DPP4 activity assay (DPP4 inhibitor screening assay kit, Cayman)
Type: biochemical
Parameters: purchased Cayman Chemical, Ann Arbor, MI, USA
Details: 0.5 h, 10 µM; control mean 100.0; Figure 1A raw data; read-out: DPP4 activity in library screen, Exp 2
measuredParameter: remaining activity at 10 µM
Answer with the value and then the unit.

Use the examples below as a reference point.
INSERT INTO assay_data (molecule, systemtested, result) VALUES
  ('O=c1[nH]cnc2c1ncn2[C@@H]1O[C@H](CO)[C@@H](O)[C@H]1O', 'DPP4 (Homo sapiens)', '94.1%'),
  ('C=CCc1ccc(O)c(-c2cc(CC=C)ccc2O)c1', 'DPP4 (Homo sapiens)', '108%'),
  ('OC[C@@H](O)[C@@H](O)[C@H](O)[C@@H](O)CO', 'DPP4 (Homo sapiens)', '91.5%'),
  ('C[C@@H]1O[C@@H](OC[C@H]2O[C@@H](Oc3c(-c4ccc(O)c(O)c4)oc4cc(O)cc(O)c4c3=O)[C@H](O)[C@@H](O)[C@@H]2O)[C@H](O)[C@H](O)[C@H]1O', 'DPP4 (Homo sapiens)', '73.8%'),
  ('O=C1CCC[C@@H]2[C@H]3CCC[N+]4([O-])CCC[C@@H](CN12)[C@@H]34 (stereo partly shown)', 'DPP4 (Homo sapiens)', '103%');

Suppose we examine the molecule "C[C@H]1[C@H](C)CC[C@]2(C(=O)O)CC[C@]3(C)C(=CC[C@@H]4[C@@]5(C)CC[C@H](O)C(C)(C)[C@@H]5CC[C@]43C)[C@H]12" ; what remaining activity at 10 µM value has been reported? 78.9%

Quick one: remaining activity at 10 µM for "C=C1C(=O)[C@]23[C@H](O)[C@H]1CC[C@H]2[C@@]12CO[C@]3(O)[C@@H](O)[C@@H]1C(C)(C)CC[C@@H]2O" ? 85.4%

###

Target: DPP4 (Homo sapiens, UniProt P27487)
Assay: DPP4 activity assay (DPP4 inhibitor screening assay kit, Cayman)
Format: biochemical
Parameters: purchased Cayman Chemical, Ann Arbor, MI, USA
Details: 0.5 h, 10 µM; control mean 100.0; Figure 1A raw data; read-out: DPP4 activity in library screen, Exp 1
The following molecules are listed with their measured remaining activity at 10 µM values.
Provide the reading as a plain figure in %.

// known answers, use as guide
INSERT INTO assay_data (molecule, systemtested, measuredparameter, measurednumber) VALUES
  ('C=C[C@H]1CN2CC[C@H]1C[C@H]2[C@H](O)c1ccnc2ccccc12', 'DPP4 (Homo sapiens, UniProt P27487)', 'remaining activity at 10 µM', 90.5),
  ('Cc1c(C(=O)NCCO)[n+]([O-])c2ccccc2[n+]1[O-]', 'DPP4 (Homo sapiens, UniProt P27487)', 'remaining activity at 10 µM', 77.8),
  ('C[C@H](CCC(=O)O)[C@H]1CC[C@H]2[C@@H]3C[C@H](O)[C@@H]4C[C@H](O)CC[C@]4(C)[C@H]3CC[C@]12C', 'DPP4 (Homo sapiens, UniProt P27487)', 'remaining activity at 10 µM', 96.6),
  ('C=C1C(=O)[C@]23[C@H](O)[C@H]1CC[C@H]2[C@@]12CO[C@]3(O)[C@@H](O)[C@@H]1C(C)(C)CC[C@@H]2O', 'DPP4 (Homo sapiens, UniProt P27487)', 'remaining activity at 10 µM', 81),
  ('CC1=C(CC/C(C)=C/CCC2=CC[C@H](C3=CC(=O)O[C@H]3O)O[C@H]2O)C(C)(C)CCC1 [Manoalide]', 'DPP4 (Homo sapiens, UniProt P27487)', 'remaining activity at 10 µM', 102);

Consider the molecule C[C@H]1[C@H](OC(=O)CCC(=O)O)O[C@@H]2O[C@@]3(C)CC[C@H]4[C@H](C)CC[C@@H]1[C@@]24OO3 [Artesunate] and give its measured remaining activity at 10 µM. 95.1

Entry "CC(C)Oc1ccc2c(=O)c(-c3ccccc3)coc2c1" has what remaining activity at 10 µM? 85.8

###

Molecular target: DPP4 (Homo sapiens, UniProt P27487)
Test: DPP4 activity assay (DPP4 inhibitor screening assay kit, Cayman);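 further: fluorescence read at excitation 360 nm and emission 460 nm after the enzyme reaction ran 30 min at 37 °C in a 96-well plate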
Format: biochemical
Set-up: purchased Cayman Chemical, Ann Arbor, MI, USA
Settings: 0.5 h, 10 µM; control mean 100.0; Figure 1A raw data; read-out: DPP4 activity in library screen, Exp 1
Listing of recorded remaining activity at 10 µM by entry.
State the answer as a number, implicitly in %.

Previously resolved entries follow.
INSERT INTO measurements (compound, measuredparameter, measurednumber) VALUES
  ('N[C@@H](Cc1c[nH]c2ccc(O)cc12)C(=O)O [5-hydroxytryptophan (5-HTP), 5-hydroxytryptophan]', 'remaining activity at 10 µM', 93.3),
  ('c1coc(CNc2ncnc3[nH]cnc23)c1 [Kinetin]', 'remaining activity at 10 µM', 97.6),
  ('COc1ccc([C@@H]2CC(=O)c3c(O)cc(O)cc3O2)cc1O [Hesperetin]', 'remaining activity at 10 µM', 80.8);

Any idea what remaining activity at 10 µM came out for OCc1ccc(O[C@@H]2O[C@H](CO)[C@@H](O)[C@H](O)[C@H]2O)cc1 [Gastrodin] on DPP4 (Homo sapiens, UniProt P27487)? 91

For the record OCc1c[nH]c2ccccc12 [Indole-3-carbinol] , what value of remaining activity at 10 µM is listed for DPP4 (Homo sapiens, UniProt P27487)? 103

Item COc1ccc(-c2cc(=O)c3c(OC)c(OC)c(OC)c(OC)c3o2)cc1OC [Nobiletin] with DPP4 (Homo sapiens, UniProt P27487) - remaining activity at 10 µM? 81.7

Query remaining activity at 10 µM on DPP4 (Homo sapiens, UniProt P27487) for C=C1CC[C@@H]2[C@](C)(CO)[C@H](O)CC[C@@]2(C)[C@@H]1C/C=C1/C(=O)OC[C@H]1O [Andrographolide] 103
